Source of measurements: paper PMC10814857

Reported pKd values follow for various binders
biological target: RP2, fluorescein-labelled reference peptide from the N-terminal extension of the RHO GTPase WRCH1/RHOU (human, UniProt Q7L0Q8, fluorescein (FITC) label, position not stated); test: FP
Sequence (Q7L0Q8 whole entry, looked up, tested part not stated): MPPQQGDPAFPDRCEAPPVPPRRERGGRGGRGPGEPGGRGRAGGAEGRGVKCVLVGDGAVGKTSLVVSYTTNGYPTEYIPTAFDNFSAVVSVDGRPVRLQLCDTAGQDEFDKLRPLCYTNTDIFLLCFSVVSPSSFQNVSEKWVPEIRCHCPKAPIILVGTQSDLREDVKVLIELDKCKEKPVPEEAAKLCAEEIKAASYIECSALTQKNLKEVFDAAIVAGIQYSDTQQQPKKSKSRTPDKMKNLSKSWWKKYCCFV
pKd: −log10 of the molar value.
observable: pKd

{"binder": "NCK1-3, third SH3 domain of NCK1, GST cleaved (domain or fragment) QVLHVVQALYPFSSSNDEELNFEKGDVMDVIEKPENDPEWWKCRKINGMVGLVPKNYVTVMQN", "quantitativeResult": 5.60}
{"binder": "ARHGAP12 SH3 domain, GST cleaved (domain or fragment) PGQVYIEVEYDYEYEAKDRKIVIKQGERYILVKKTNDDWWQVKPDENSKAFYVPAQYVKEVTR", "quantitativeResult": 4.81}
{"binder": "BIN1 SH3 domain, GST cleaved (domain or fragment) GFMFKVQAQHDYTATDTDELQLKAGDVVLVIPFQNPEEQDEGWLMGVKESDWNQHKELEKCRGVFPENFTERVP", "quantitativeResult": 4.32}
